Would you kindly list filipin (z-score) for each of these compounds?
- Test system: A431
- PROCEDURE DETAILS: filipin (cholesterol) integrated intensity within LBPA endosomes, Z-score; higher = more cholesterol in LBPA endosomes
- TEST CONDITIONS: compound concentration in added solution (µM; 5 µl added to 20 µl cells): 10; 18 h
Where a name gives a salt, the structure may show the parent alone.
Give the value as a plain number.

Give filipin (z-score) for CCCCC1C(=O)N(c2ccccc2)N(c2ccccc2)C1=O tested on A431.
-0.314

Please tell me the measured filipin (z-score) for Oc1ccc(OCc2ccccc2)cc1 ; system: A431.
-0.548

State, for A431, measured filipin (z-score) of the compound listed here: CC[C@@H](CO)NCCN[C@@H](CC)CO [Ethambutol dihydrochloride]
-0.429

Report filipin (z-score) from A431 testing of CCN1CCN(C(=O)N[C@@H](C(=O)N[C@@H]2C(=O)N3C(C(=O)O)=C(CSc4nnnn4C)CS[C@H]23)c2ccc(O)cc2)C(=O)C1=O [Cefoperazone dihydrate]
-0.522

Enter measured filipin (z-score), system A431, for the compound shown: CC(=O)OCC1=C(C(=O)O)N2C(=O)[C@@H](NC(=O)Cc3cccs3)[C@H]2SC1 [Cephalothin sodium salt]
-0.456

Jot down filipin (z-score) (A431) of CC1(C)O[C@@H]2C[C@H]3[C@@H]4C[C@H](F)C5=CC(=O)CC[C@]5(C)[C@H]4[C@@H](O)C[C@]3(C)[C@]2(C(=O)CO)O1 [Flurandrenolide] .
-0.236

// output filipin (z-score); input CN(C)CC/C=C1\c2ccccc2CSc2ccccc21 [Dosulepin hydrochloride] ; system A431
1.82

Fill in filipin (z-score) for CC(=O)OCC(=O)[C@@]12OC(C)(C)O[C@@H]1C[C@H]1[C@@H]3C[C@H](F)C4=CC(=O)C=C[C@]4(C)[C@@]3(F)[C@@H](O)C[C@@]12C [Fluocinonide] tested with A431.
-0.311

Recall the reported filipin (z-score) of S=c1[nH]cnc2nc[nH]c12 when tested on A431.
-0.742

Please report the measured filipin (z-score) for CNNCc1ccc(C(=O)NC(C)C)cc1 [Procarbazine hydrochloride] tested on A431.
-0.487

GET filipin (z-score) where system = A431 and item = CC(=O)NC[C@H]1CN(c2ccc(N3CCOCC3)c(F)c2)C(=O)O1
-0.583

Report filipin (z-score) under test system A431 for CC(=O)c1ccc2c(c1)N(CCCN(C)C)c1ccccc1S2 [Acetopromazine maleate salt] .
1.18

// output filipin (z-score); input CC(C)N1CCN(c2ccc(OCC3COC(Cn4cncn4)(c4ccc(Cl)cc4Cl)O3)cc2)CC1 (stereo not drawn) ; system A431
3.31

Please tell me the measured filipin (z-score) for CCCCOc1cc(C(=O)NCCN(CC)CC)c2ccccc2n1 ; system: A431.
2.29

// fetch filipin (z-score); item: C[C@H]1O[C@H](O[C@H]2[C@H](O)[C@@H](O)[C@@H](O[C@H]3[C@H](O)[C@@H](O)C(O)O[C@@H]3CO)O[C@@H]2CO)[C@H](O)[C@@H](O)[C@@H]1N[C@H]1C=C(CO)[C@@H](O)[C@H](O)[C@H]1O (stereo partly drawn) ; system: A431
-0.508

GET filipin (z-score) where system = A431 and item = CCc1cc(C(N)=S)ccn1 [Ethionamide]
-0.493

# return filipin (z-score) for C[C@H](N)[C@H](O)c1cccc(O)c1 [Metaraminol bitartrate] , test system: A431
-0.416

Answer briefly: filipin (z-score) recorded on A431 for O=C(CCCCC(=O)Nc1c(I)cc(I)c(C(=O)O)c1I)Nc1c(I)cc(I)c(C(=O)O)c1I [Iodipamide]
-0.385

State filipin (z-score) on A431. Entry: CC[N+](CC)(CC)CCOc1cccc(OCC[N+](CC)(CC)CC)c1OCC[N+](CC)(CC)CC [Gallamine triethiodide]
-0.526

# return filipin (z-score) for CC#C[C@]1(O)CC[C@H]2[C@@H]3CCC4=CC(=O)CCC4=C3[C@@H](c3ccc(N(C)C)cc3)C[C@@]21C , test system: A431
-0.386

State recorded filipin (z-score) with A431, entry CC12CC3CC(C)(C1)CC(N)(C3)C2 [Memantine Hydrochloride] , no comment.
-0.349

With A431 as the test system, provide measured filipin (z-score) for this compound: CCC(Cc1c(I)cc(I)c(N)c1I)C(=O)O (stereo not drawn)
-0.484

Please indicate recorded filipin (z-score) of COc1c(N2CCNC(C)C2)c(F)cc2c(=O)c(C(=O)O)cn(C3CC3)c12 (stereo not drawn) measured with A431.
-0.446

Provide filipin (z-score), recorded with A431, of CN1CCN(C2=Nc3cc(Cl)ccc3Nc3ccccc32)CC1
0.781

Tell me filipin (z-score) of C#C[C@]1(O)CC[C@H]2[C@@H]3[C@H](C)CC4=C(CCC(=O)C4)[C@H]3CC[C@@]21C when tested on A431.
-0.476

Quote filipin (z-score) with test system A431 for CCCOc1ccccc1-c1nc2[nH]nnc2c(=O)[nH]1
-0.519

Find filipin (z-score) for CCCNC(C)(C)COC(=O)c1ccccc1 [Meprylcaine hydrochloride] on A431 and write it down.
-0.429

Please indicate recorded filipin (z-score) of N[C@@H](Cc1ccc(O)c(O)c1)C(=O)O measured with A431.
-0.332

Write down measured filipin (z-score) (A431) for this compound. CC/C(=C(\c1ccccc1)c1ccc(OCCN(C)C)cc1)c1ccccc1 [Tamoxifen citrate]
2.05

State the measured filipin (z-score) (A431) of COc1ccc([C@@H]2Sc3ccccc3N(CCN(C)C)C(=O)[C@@H]2OC(C)=O)cc1 [Diltiazem hydrochloride]
-0.362

Provide filipin (z-score), system A431, entry Cc1cnc(C(=O)NCCc2ccc(S(=O)(=O)NC(=O)NC3CCCCC3)cc2)cn1 [Glipizide]
-0.587

Consider the compound COc1ccc2[nH]cc(CCNC(C)=O)c2c1 tested on A431; state its filipin (z-score).
-0.528

Recall the reported filipin (z-score) of COCCOC(=O)C1=C(C)NC(C)=C(C(=O)OC(C)C)C1c1cccc([N+](=O)[O-])c1 (stereo not drawn) when tested on A431.
-0.323

The measurements presented in this section are drawn from the supplement of paper PMC6607015.
